Test: Lipophilicity (logP), partition in n-octanol/PBS (pH 7.4)
Format: physicochemical
Conditions: pH 7.4
Where a SMILES comes first, the peptide text is derived from it. The star is where a group is joined. DOTA = O=C(O)CN1CCN(CC(=O)O)CCN(CC(=O)*)CCN(CC(=O)O)CC1
Below: a set of entries, each annotated with reported logP.

# compound, logP
measured = [
    ("CSCC[C@H](NC(=O)[C@H](CC(C)C)NC(=O)CNC(=O)[C@H](Cc1ccccc1)NC(=O)[C@H](Cc1ccccc1)NC(=O)[C@H](CCC(N)=O)NC(=O)[C@H](CCC(N)=O)NC(=O)[C@@H]1CCCN1C(=O)[C@H](CCCCN)NC(=O)[C@@H]1CCCN1C(=O)[C@H](CCCNC(=N)N)NC(=O)CN1CCN(CC(=O)O)CCN(CC(=O)O)CCN(CC(=O)O)CC1)C(N)=O [2a, [^177Lu]DOTA-SP(1–11), metal not drawn]", -5.12),
    ("CSCC[C@H](NC(=O)[C@H](CC(C)C)NC(=O)CNC(=O)[C@H](Cc1ccccc1)NC(=O)[C@H](Cc1ccccc1)NC(=O)[C@H](CCC(N)=O)NC(=O)[C@H](CCC(N)=O)NC(=O)[C@@H]1CCCN1C(=O)CN1CCN(CC(=O)O)CCN(CC(=O)O)CCN(CC(=O)O)CC1)C(N)=O [2c, [^177Lu]DOTA-SP(4–11), metal not drawn]", -2.93),
    ("CSCC[C@H](NC(=O)[C@H](CC(C)C)NC(=O)CNC(=O)[C@H](Cc1ccccc1)NC(=O)[C@H](Cc1ccccc1)NC(=O)[C@H](CCC(N)=O)NC(=O)[C@H](CCC(N)=O)NC(=O)CN1CCN(CC(=O)O)CCN(CC(=O)O)CCN(CC(=O)O)CC1)C(N)=O [2d, [^177Lu]DOTA-SP(5–11), metal not drawn] ({DOTA}-QQFFGLM-NH2)", -2.68),
]
